B1: KRT13 (parent)
chain: TSSASVTTTSNASGRRTSDVRRP

variants of: B1; experiment: protein stability index of a GFP-peptide fusion (GPS, HEK-293T) (PSI 1-6); higher = more stable; conditions: c terminus: native;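 note: lentivirally expressed fusions sorted by FACS into six bins by GFP to DsRed ratio, PSI derived from sequencing read proportions per bin multiplied by bin number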
readout-type: protein stability index

# mutations, result-value
data = [
    ("V20D", 1.76),
    ("D19C", 2.52),
    ("R16P", 2.52),
    ("N11V", 1.98),
    ("V6G", 2.71),
    ("P23M", 4.45),
    ("P23F", 4.92),
    ("V6S", 1.09),
    ("T17D", 2.62),
    ("S2Y", 2.08),
    ("V20T", 4.51),
]
